# Procedure text: Lipophilicity HPLC determination (capacity factor k / calculated log k)
# Format: physicochemical
# Recorded conditions: RP-HPLC, C18, MeOH/H2O 55:45, non-buffered, isocratic
Readout kind: log k

Name the recorded log k of the item `COc1ccc(/C=C/c2nc3ccccc3c(=O)[nH]2)cc1` in your answer.
1.1351

Return value of log k for input `O=c1[nH]c(/C=C/c2cccc(Br)c2)nc2ccccc12` , no commentary.
1.5904

Please report the measured log k for `COc1ccc(/C=C/c2nc3ccccc3c(=O)[nH]2)c(OC)c1`
1.1982

I = O=Cc1ccc(/C=C/c2nc3ccccc3c(=O)[nH]2)cc1
II = O=c1[nH]c(/C=C/c2cccc(Cl)c2)nc2ccccc12
III = O=c1[nH]c(/C=C/c2ccc(O)c(O)c2O)nc2ccccc12
// sort entries: log k, high to low // rank by listing labels in the order requested
II, I, III
(II: 1.5059, I: 0.8005, III: 0.5510)

1 = Cc1nc2ccccc2c(=O)n1CCO
2 = COc1ccccc1/C=C/c1nc2ccccc2c(=O)[nH]1
Recorded log k values differ for 1 and 2 ; which one is higher? # answer = label of selected item
2

* * *

# Procedure text: Lipophilicity HPLC determination (capacity factor k / calculated log k)
# Type: physicochemical
# Recorded conditions: RP-HPLC, C18, MeOH/H2O 55:45, non-buffered, isocratic
Readout kind: log k

Return reported log k. Input molecule: O=c1[nH]c(/C=C/c2ccccc2Br)nc2ccccc12 [Compound 3g]
1.4830

Look up and state reported log k for O=c1[nH]c(/C=C/c2ccc(Br)cc2)nc2ccccc12 [Compound 3i]
1.5927

Give me measured log k, please, for this molecule: Cc1nc2ccccc2c(=O)[nH]1 [Compound 1, 2-Methylquinazolin-4(3H)-one]
0.1170

Output measured log k for this item: COc1ccc(/C=C/c2nc(Cl)c3ccccc3n2)cc1 [Compound 4d]
1.1337

Identify measured log k associated with O=c1[nH]c(/C=C/c2ccccc2)nc2ccccc12 [Compound 3a, 2-(E)-Styrylquinazolin-4(3H)-one]
1.1148

In one line, give reported log k of the entry COc1cccc(/C=C/c2nc3ccccc3c(=O)[nH]2)c1 [Compound 3c] .
1.1837

Hello, please tell me recorded log k for this one: COc1ccccc1/C=C/c1nc(Cl)c2ccccc2n1 [Compound 4b]
1.1497

Read the entry COc1cccc(/C=C/c2nc(Cl)c3ccccc3n2)c1 [Compound 4c] and write its reported log k.
1.1827

Fill in reported log k for this entry: Clc1nc(/C=C/c2ccccc2)nc2ccccc12 [Compound 4a, 4-Chloro-2-(E)-styrylquinazoline]
1.1088

Look up and report measured log k for this entry: COc1ccc(/C=C/c2nc(Cl)c3ccccc3n2)c(OC)c1 [Compound 4e]
1.1953

Provenance of the data: paper PMC6254837
